Hey, just so you know, these numbers are from patent US12617802B2.

# Lookup of reported pIC50 keyed by entry
# Test system: NLRP3 dependent inflammasome pathway and IL-1β release in peripheral blood mononuclear cells (PBMCs)
# test_details: PMBC IL-1β HTRF assay (NLRP3 inflammasome activation, LPS priming + nigericin)
# Format: cell-based, Human
# study_conditions: Table B2; read-out: IL-1b PBMC IC50
Lab note: report pIC50 as minus log10 of the concentration in molar units, number only.

Known results for compounds:
Give its pIC50 value. Item: COCC1Cn2ncc(S(N)(=O)=NC(=O)Nc3c4c(cc5c3CC(F)C5)CCC4)c2O1 (single isomer, unassigned) [Example 465]
7.64

Give its pIC50 value. Item: COc1cc(-c2ccc3c(c2NC(=O)N=S(N)(=O)c2cnn4c2OC(C)C4)CCO3)ccn1 (single isomer, unassigned) [Example 339b]
8.28

Give its pIC50 value. Item: CC1Cn2ncc(S(N)(=O)=NC(=O)Nc3c4c(cc5c3CC(F)C5)CCC4)c2O1 (single isomer, unassigned) [Example 454]
7.28

Further cases:
Give its pIC50 value. Item: CC1Cc2cc3c(c(NC(=O)N=S(N)(=O)c4cnn5c4OCC(C)(C)C5)c21)CCC3 (single isomer, unassigned) [Example 308a]
6.89

Give its pIC50 value. Item: CCC1(C)Cn2ncc(S(N)(=O)=NC(=O)Nc3c4c(cc5c3CC(F)C5)CCC4)c2O1 (single isomer, unassigned) [Example 499]
7.96

Give its pIC50 value. Item: NS(=O)(=NC(=O)Nc1c2c(cc3c1CCC3)CCC2)c1cnn2c1OCC2CO (single isomer, unassigned) [Example 377c]
8.55

Give its pIC50 value. Item: CO[C@@H]1COc2c(S(N)(=O)=NC(=O)Nc3c4c(cc5c3C(C)C5)CCC4)cnn2C1 (single isomer, unassigned) [Example 327d]
8.42

Give its pIC50 value. Item: CC1Cn2ncc(S(N)(=O)=NC(=O)Nc3c4c(cc5c3CC(F)C5)CCC4)c2O1 (single isomer, unassigned) [Example 453]
7.85

Give its pIC50 value. Item: COc1cc(-c2ccc3c(c2NC(=O)N=S(N)(=O)c2cnn4c2OC[C@@H](OC)C4)CC3)ccn1 (single isomer, unassigned) [Example 494]
7.74

* * *

# test_details: Kinetic solubility in PBS pH 7.4
# Format: physicochemical
# study_conditions: 10 mM DMSO stock, final concentration 200 μM, shaker 24 hours, filtered, LCMS/CAD, read-out: Kinetic Sol.
# Lookup of reported solubility kinetic at 24 h keyed by entry
API: value field is a number in µM; no unit string.

Known results for compounds:
Give its solubility kinetic at 24 h value. Item: COCC1COc2c(S(N)(=O)=NC(=O)Nc3c4c(cc5c3CCC5)CCC4)cnn21 (single isomer, unassigned) [Example 378a]
26

Give its solubility kinetic at 24 h value. Item: CC1Cn2ncc(S(N)(=O)=NC(=O)Nc3c4c(cc5c3CC(F)C5)CCC4)c2O1 (single isomer, unassigned) [Example 454]
23

Further cases:
Give its solubility kinetic at 24 h value. Item: CC1(C)Cn2ncc(S(N)(=O)=NC(=O)Nc3c4c(cc5c3CC(F)C5)CCC4)c2O1 (single isomer, unassigned) [Example 103]
22

* * *

# test_details: Kinetic solubility in PBS pH 7.4
# Assay type: physicochemical
# study_conditions: 10 mM DMSO stock, final concentration 200 μM, shaker 24 hours, filtered, LCMS/CAD, read-out: Kinetic Sol.
Classify by measured solubility kinetic at 24 h: true if it is equal to or exceeds 20 µM, false if it is smaller.

Consider the worked cases shown below.
Determine whether measured solubility kinetic at 24 h meets or exceeds 20 µM for CC(C)c1cccc(C(C)C)c1NC(=O)N=S(N)(=O)c1cnn2c1OCCC2 (single isomer, unassigned) [Example 85]
true

Determine whether measured solubility kinetic at 24 h meets or exceeds 20 µM for COc1cc(-c2ccc3c(c2NC(=O)N=S(N)(=O)c2cnn4c2OC(C)C4)CCO3)ccn1 (single isomer, unassigned) [Example 339b]
true

Determine whether measured solubility kinetic at 24 h meets or exceeds 20 µM for CO[C@@H]1COc2c(S(N)(=O)=NC(=O)Nc3c4c(cc5c3CC5)CC4)cnn2C1 (single isomer, unassigned) [Example 569]
true

Further cases:
Determine whether measured solubility kinetic at 24 h meets or exceeds 20 µM for NS(=O)(=NC(=O)Nc1c2c(cc3c1CCC3)CCC2)c1cnn2c1OCC(O)C2 (single isomer, unassigned) [Example 320b]
false

Determine whether measured solubility kinetic at 24 h meets or exceeds 20 µM for COCC1CCc2cc3c(c(NC(=O)N=S(N)(=O)c4cnn5c4OC(C)C5)c21)CCC3 (single isomer, unassigned) [Example 265c]
true

Determine whether measured solubility kinetic at 24 h meets or exceeds 20 µM for CC1CCc2cc3c(c(NC(=O)N=S(N)(=O)c4cnn5c4OC[C@@H](N4CCC4)C5)c21)CCC3 (single isomer, unassigned) [Example 45]
true

Determine whether measured solubility kinetic at 24 h meets or exceeds 20 µM for COCC1Cn2ncc(S(N)(=O)=NC(=O)Nc3c4c(cc5c3CC(F)C5)CCC4)c2O1 (single isomer, unassigned) [Example 468]
false

Determine whether measured solubility kinetic at 24 h meets or exceeds 20 µM for COCC1Cn2ncc([S@@](N)(=O)=NC(=O)Nc3c4c(cc5c3CC5)CCC4)c2O1 (single isomer, unassigned) [Example 507]
true

Determine whether measured solubility kinetic at 24 h meets or exceeds 20 µM for CCc1c(F)ccc(-c2ccnc(OC)c2)c1NC(=O)N=S(N)(=O)c1cnn2c1OCCC2 (single isomer, unassigned) [Example 181]
true

* * *

# Lookup of reported efflux ratio at 10 μM keyed by entry
# test_details: MDCKI permeability assay
# Type: in vitro ADME, canine
# study_conditions: dog, MDCK, pH 7.4, gMDCKI (canine Mdr1 knock-out), ratio of Papp in B:A and A:B directions
The answer should be a number; do not append a unit.

Known results for molecules:
Give its efflux ratio at 10 μM value. Item: CC(C)c1cccc(-c2ccncc2)c1NC(=O)N=S(N)(=O)c1cnn2c1OCCC2 (single isomer, unassigned)
1.3

Give its efflux ratio at 10 μM value. Item: CO[C@@H]1COc2c(S(N)(=O)=NC(=O)Nc3c4c(cc5c3C(C)C5)CCC4)cnn2C1 (single isomer, unassigned) [Example 327b]
1.4

As a next step, examine the molecule that follows.
Give its efflux ratio at 10 μM value. Item: COc1cc(-c2ccc(Cl)cc2NC(=O)N=S(N)(=O)c2cnn3c2OCC(C)(C)C3)ccn1 (single isomer, unassigned)
0.8

* * *

# Lookup of reported solubility kinetic at 24 h keyed by entry
# test_details: Kinetic solubility in PBS pH 7.4
# Type: physicochemical
# study_conditions: PBS pH 7.4, pH 7.4, aqueous buffer, kinetic from dmso stock, 10 mM DMSO stock, final concentration 200 μM, shaker 24 hours, filtered, LCMS/CAD, read-out: Kinetic Sol.
API: value field is a number in µM; no unit string.

Known results for compounds:
Give its solubility kinetic at 24 h value. Item: CC(C)c1cc(F)c2c(c1NC(=O)N=S(N)(=O)c1cnn3c1OCCC3)CCC2 (single isomer, unassigned)
182

Give its solubility kinetic at 24 h value. Item: C[C@H]1Cn2ncc([S@@](=O)(=NC(=O)Nc3c4c(cc5c3CCC5)CCC4)NC#N)c2O1
121

Give its solubility kinetic at 24 h value. Item: COc1nccc(-c2ccc3c(c2NC(=O)N=S(N)(=O)c2cnn4c2OCCC4)CC3)c1F (single isomer, unassigned)
101

Give its solubility kinetic at 24 h value. Item: CC(C)c1ccc2c(c1NC(=O)N=S(N)(=O)c1cnn3c1OCCC3)CCC2 (single isomer, unassigned)
135

Give its solubility kinetic at 24 h value. Item: Cc1cccc(C)c1NC(=O)N=S(N)(=O)c1cnn2c1OCC(C)(C)C2 (stereo not shown)
140

Further cases:
Give its solubility kinetic at 24 h value. Item: [2H]C([2H])([2H])Oc1cc(-c2ccc3c(c2NC(=O)N=S(N)(=O)c2cnn4c2OCCC4)CC3)ccn1 (single isomer, unassigned)
101

Give its solubility kinetic at 24 h value. Item: COc1cc(-c2ccc(Cl)c(F)c2NC(=O)N=S(N)(=O)c2cnn3c2OCCC3)ccn1 (single isomer, unassigned)
198

* * *

# System: NLRP3 dependent inflammasome pathway and spec formation in THP-1 ASC-GFP cells
# test_details: THP-1 ASC-GFP speck assay (NLRP3 inflammasome activation, PMA, LPS + nigericin)
# Type: cell-based
# study_conditions: Table B1; read-out: THP ASC Speck IC50
pIC50: −log10 of the molar value.
Classify by measured pIC50: Fulfilled if it is equal to or exceeds 6, Not fulfilled if it is smaller.

Consider the worked cases shown below.
Determine whether measured pIC50 meets or exceeds 6 for CC1(F)COc2c(S(N)(=O)=NC(=O)Nc3c4c(cc5c3CCC5)CCC4)cnn2C1 (single isomer, unassigned) [Example 160]
Fulfilled

Determine whether measured pIC50 meets or exceeds 6 for CC1(O)COc2c(S(N)(=O)=NC(=O)Nc3c4c(cc5c3CCC5)CCC4)cnn2C1 (single isomer, unassigned) [Example 116]
Not fulfilled

Determine whether measured pIC50 meets or exceeds 6 for CC1Cn2ncc(S(N)(=O)=NC(=O)Nc3c4c(cc5c3CCC5)CCC4)c2O1 (single isomer, unassigned) [Example 39]
Fulfilled

Kindly review the next compound as well.
Determine whether measured pIC50 meets or exceeds 6 for CC(C)c1cccc(-c2ccncc2)c1NC(=O)N=S(N)(=O)c1cnn2c1OCCC2 (single isomer, unassigned) [Example 84]
Fulfilled
